Values compiled from patent US20130289246A1.

biological target: soluble 1999 H1 HA (seasonal 1999 H1N1) (Influenza A virus (H1N1, 1999)); assay: ELISA, supernate; note: test concentration or dose not given here
metric: OD (OD)
Reply numerically in OD, unit not repeated.

OD reading for mAb 8F24 (antibody, V domains shown) VH: EVQLLESGGGLVQPGGSLRLSCAASGFAFSSYGMSWVRQAPGKGLEWVSAFSGSGTSTYYADSVKGRFTISRDKSKNTLYLQMNSLRAEDTAIYYCAKPPGPYIVVAGLFENWGRGTLVTVS VL: EIVMTQSPATLSVSPGERVTLSCRASQSITDGLAWYQQKSGQAPRLLIYGASTRATGIPARFSGSGSGTEFTLTISSLQSEDFAVYYCQQYNNWPPVTFGQGTKVEIKR : 1.01
